assayed target: UniProt P11362
Sequence (P11362 22-822): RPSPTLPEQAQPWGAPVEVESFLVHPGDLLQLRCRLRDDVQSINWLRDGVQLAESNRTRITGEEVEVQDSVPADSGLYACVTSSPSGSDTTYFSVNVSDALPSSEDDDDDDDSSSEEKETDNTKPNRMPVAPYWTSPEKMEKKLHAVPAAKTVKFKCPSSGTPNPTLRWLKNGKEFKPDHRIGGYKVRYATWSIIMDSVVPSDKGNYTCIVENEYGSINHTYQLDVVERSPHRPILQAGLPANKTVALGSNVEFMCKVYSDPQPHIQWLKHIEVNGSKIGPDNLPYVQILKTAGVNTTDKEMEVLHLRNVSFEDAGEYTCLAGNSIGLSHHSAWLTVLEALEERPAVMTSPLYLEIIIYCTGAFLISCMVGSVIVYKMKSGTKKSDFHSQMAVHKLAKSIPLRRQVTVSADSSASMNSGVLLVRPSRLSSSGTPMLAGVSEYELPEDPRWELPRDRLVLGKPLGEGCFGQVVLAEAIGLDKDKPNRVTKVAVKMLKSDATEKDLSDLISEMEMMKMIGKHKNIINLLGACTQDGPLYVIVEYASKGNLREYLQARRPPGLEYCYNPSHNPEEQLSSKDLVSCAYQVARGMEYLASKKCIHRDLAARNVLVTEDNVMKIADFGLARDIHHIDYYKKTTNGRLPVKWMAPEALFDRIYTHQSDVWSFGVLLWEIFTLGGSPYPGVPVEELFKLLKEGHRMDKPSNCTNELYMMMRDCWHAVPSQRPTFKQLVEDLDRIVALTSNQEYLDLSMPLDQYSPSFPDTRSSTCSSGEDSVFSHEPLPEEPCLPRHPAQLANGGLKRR
procedure text: FGFR Kinase assay - Caliper; also: 408 µM ATP
Type: biochemical
stated conditions: FGFR1 […], 408 uM ATP; mean of n as printed; read-out: FGFR Kinase assay - Caliper, IC50
Group membership follows IC50 per the scheme low: < 50 nM; moderate: ≥ 50 nM and < 200 nM; high: ≥ 200 nM

Solved entries (count: 3):
# compound, group label
records = [
    ("COc1cc(CCc2cc(NC(=O)c3ccc(N4CCN5CCCC5C4)cc3)[nH]n2)cc(OC)c1 (centres unmarked) [Example 93]", "low"),
    ("COc1cc(CCc2cc(NC(=O)c3ccc(F)cc3)[nH]n2)cc(OC)c1 [Example 38]", "moderate"),
    ("COc1cc(CCc2cc(NC(=O)c3ccc(CN4CCCC(F)C4)cc3)n[nH]2)cc(OC)c1 (centres unmarked) [Example 53]", "moderate"),
]

Band of COc1cc(CCc2cc(NC(=O)c3ccc(N4CCN(CCO)CC4)cc3)n[nH]2)cc(OC)c1 [Example 51] ?
moderate

Band of CN1CCN(c2ccc(C(=O)Nc3cc(CCc4ccc5c(c4)OCO5)n[nH]3)cc2)CC1 [Example 77] ?
moderate

Band of COc1cc(COc2cc(NC(=O)c3cnc(N4CCN(C)CC4)cn3)[nH]n2)cc(OC)c1 [Example 20] ?
low

Band of COc1cc(CCc2cc(NC(=O)c3ccccc3NCc3cc(C)no3)n[nH]2)cc(OC)c1 [Example 83] ?
high
